measured target: Muscarinic acetylcholine receptor M1 (Homo sapiens); further: assay procedure not described here
Sequence (P11229 whole entry): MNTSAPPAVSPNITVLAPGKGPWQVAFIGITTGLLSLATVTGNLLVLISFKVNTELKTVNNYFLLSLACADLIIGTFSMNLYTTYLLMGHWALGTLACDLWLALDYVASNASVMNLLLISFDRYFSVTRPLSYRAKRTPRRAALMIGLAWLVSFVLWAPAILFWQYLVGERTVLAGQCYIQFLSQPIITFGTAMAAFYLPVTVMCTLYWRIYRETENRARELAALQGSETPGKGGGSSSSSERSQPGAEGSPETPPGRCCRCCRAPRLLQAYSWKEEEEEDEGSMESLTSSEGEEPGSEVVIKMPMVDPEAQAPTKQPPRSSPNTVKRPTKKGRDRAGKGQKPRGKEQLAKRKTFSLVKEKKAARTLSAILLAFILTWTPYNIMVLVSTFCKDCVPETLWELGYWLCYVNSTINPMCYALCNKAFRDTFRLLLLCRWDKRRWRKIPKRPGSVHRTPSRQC
Format: functional
experimental endpoint: AC50

Sample records with AC50:
{"compound": "CC1(C)S[C@@H]2[C@H](NC(=O)C(C(=O)O)c3ccccc3)C(=O)N2[C@H]1C(=O)O (some centres undefined)", "measured target": "Muscarinic acetylcholine receptor M1 (Homo sapiens)", "AC50": "> 30 µM"}
{"compound": "COc1cc(C(=O)OCc2cccc(COC(=O)c3cc(OC)c(OC)c(OC)c3)n2)cc(OC)c1OC", "measured target": "Muscarinic acetylcholine receptor M1 (Homo sapiens)", "AC50": "> 30 µM"}
{"compound": "NS(=O)(=O)c1cc2c(cc1Cl)N=C(CSCc1ccccc1)NS2(=O)=O [BENZTHIAZIDE]", "measured target": "Muscarinic acetylcholine receptor M1 (Homo sapiens)", "AC50": "> 30 µM"}

Q) Consider the compound Cn1c(=O)c2c(ncn2CCOC(=O)C(C)(C)Oc2ccc(Cl)cc2)n(C)c1=O [THEOFIBRATE] and give its measured AC50.
A) > 30 µM

Q) Quick one: AC50 of CC(C)(C)NCC(O)c1ccccc1Cl (centres undefined) ?
A) > 30 µM

Q) Could you share which AC50 value was measured for CC(=O)c1ccc(S(=O)(=O)NC(=O)NC2CCCCC2)cc1 [ACETOHEXAMIDE] ?
A) > 10 µM

Q) Sample C[C@]12C=CC(=O)C=C1CC[C@@H]1[C@@H]2CC[C@]2(C)OC(=O)CC[C@@H]12 — what was its AC50?
A) > 10 µM

Q) Can you look up the measured AC50 of c1ccc(C2(N3CCCCC3)CCCCC2)cc1 for me?
A) > 30 µM

Q) If you can, please state the reported AC50 value of CCc1nc(N)nc(N)c1-c1ccc(Cl)cc1 .
A) > 30 µM
